Test system: ACHN
procedure_summary: DTP Human Tumor Cell Line Screen, sulforhodamine B assay
Type: cell-based
condition_set: Homo sapiens, Renal Cancer, 48 h
measure_name: IC50

*Q* I would be grateful if you could share the reported IC50 for O=C(OCC1COCCOCCOCCOCCO1)c1ccc(CS(=O)(=O)CC#CCO)cc1 (stereo not shown) .
*A* > 100 µM

---

System: U251
procedure_summary: DTP Human Tumor Cell Line Screen, sulforhodamine B assay
Format: cell-based
condition_set: Homo sapiens, U-251, CNS Cancer, 48 h
measure_name: pIC50
Answers are plain numbers, as −log10 of the molar value.

*Q* Fill in the blank: the reported pIC50 of O=C(OCC1COCCOCCOCCOCCO1)c1ccc(CS(=O)(=O)CC#CCO)cc1 (stereo not shown) is ____.
*A* 4.16

---

System: SW-620
procedure_summary: DTP Human Tumor Cell Line Screen, sulforhodamine B assay
Assay type: cell-based
condition_set: Homo sapiens, Colon Cancer, 48 h
measure_name: pIC50
One number for each entry, as −log10 of the molar value.

*Q* For the compound shown here, O=C(OCC1COCCOCCOCCOCCO1)c1ccc(CS(=O)(=O)CC#CCO)cc1 (stereo not shown) , give the reported pIC50.
*A* 4.17

---

Test system: SR
procedure_summary: DTP Human Tumor Cell Line Screen, sulforhodamine B assay
Format: cell-based
condition_set: Homo sapiens, Leukemia, 48 h
measure_name: IC50

*Q* Record request: IC50 value, item O=C(OCC1COCCOCCOCCOCCO1)c1ccc(CS(=O)(=O)CC#CCO)cc1 (stereo not shown)
*A* > 100 µM

---

Hi there, I'd appreciate the recorded pIC50 for every entry that follows.
System: SF-539
procedure_summary: DTP Human Tumor Cell Line Screen, sulforhodamine B assay
Type: cell-based
condition_set: CNS Cancer, 48 h
One number for each entry, as −log10 of the molar value.

| compound | pIC50 |
| --- | --- |
| O=S1(=O)CC#CCOCCOCCOCCOCCOCCOCC#CC1 [Compound 2.47] | 4.95 |

Please examine the following record next.
*Q* Need pIC50, item O=S1(=O)CC#CCOCCOCCOCCOCCOCCOCCOCC#CC1 [Compound 2.48]
*A* 4.58

---

Tested on: B16 murine melanoma cells
procedure_summary: Growth inhibition of B16 murine melanoma cells, MTT assay
Type: cell-based
condition_set: B16 melanoma cells; read-out: IC50, growth inhibition
Please provide measured IC50 for the entries that follow.
Answers are plain numbers, in µM.

| compound_structure | units_text | IC50 |
| --- | --- | --- |
| O=S1(=O)CC#CCOCCOCCOCCOCCOCCOCCOCC#CC1 | µM | 44.7 |

*Q* I have this molecule here, `O=S1(=O)CC#CCOCCOCCOCCOCCOCCOCC#CC1` , and I need its recorded IC50.
*A* 54.2

---

Would you kindly list IC50 for each of these compounds?
Tested on: SK-MEL-5
procedure_summary: DTP Human Tumor Cell Line Screen, sulforhodamine B assay
Type: cell-based
condition_set: Melanoma, 48 h
Numbers only, in µM.

| compound | units_text | observed_measurement |
| --- | --- | --- |
| O=S1(=O)CC#CCOCCOCCOCCOCCOCCOCCOCC#CC1 [Compound 2.48] | µM | 18.1 |

Attention now turns to another entry.
*Q* Form field: reported IC50 of O=S1(=O)CC#CCOCCOCCOCCOCCOCCOCC#CC1 [Compound 2.47]
*A* 16.8
